The reported numbers originate from patent US10259810B2.

Target: CFTR ΔF508 (Homo sapiens, UniProt P13569, DEL508-508)
Construct: bronchial epithelial cells isolated from CF patients homozygous for the CFTR ΔF508 mutation; McGill University; Asterand; University of North Carolina hAEC-CF; host or cells: primary human bronchial epithelial cells from CF patients homozygous for ΔF508, differentiated at air-liquid interface
Sequence (P13569 with tags, fused parts or gaps DEL508-508): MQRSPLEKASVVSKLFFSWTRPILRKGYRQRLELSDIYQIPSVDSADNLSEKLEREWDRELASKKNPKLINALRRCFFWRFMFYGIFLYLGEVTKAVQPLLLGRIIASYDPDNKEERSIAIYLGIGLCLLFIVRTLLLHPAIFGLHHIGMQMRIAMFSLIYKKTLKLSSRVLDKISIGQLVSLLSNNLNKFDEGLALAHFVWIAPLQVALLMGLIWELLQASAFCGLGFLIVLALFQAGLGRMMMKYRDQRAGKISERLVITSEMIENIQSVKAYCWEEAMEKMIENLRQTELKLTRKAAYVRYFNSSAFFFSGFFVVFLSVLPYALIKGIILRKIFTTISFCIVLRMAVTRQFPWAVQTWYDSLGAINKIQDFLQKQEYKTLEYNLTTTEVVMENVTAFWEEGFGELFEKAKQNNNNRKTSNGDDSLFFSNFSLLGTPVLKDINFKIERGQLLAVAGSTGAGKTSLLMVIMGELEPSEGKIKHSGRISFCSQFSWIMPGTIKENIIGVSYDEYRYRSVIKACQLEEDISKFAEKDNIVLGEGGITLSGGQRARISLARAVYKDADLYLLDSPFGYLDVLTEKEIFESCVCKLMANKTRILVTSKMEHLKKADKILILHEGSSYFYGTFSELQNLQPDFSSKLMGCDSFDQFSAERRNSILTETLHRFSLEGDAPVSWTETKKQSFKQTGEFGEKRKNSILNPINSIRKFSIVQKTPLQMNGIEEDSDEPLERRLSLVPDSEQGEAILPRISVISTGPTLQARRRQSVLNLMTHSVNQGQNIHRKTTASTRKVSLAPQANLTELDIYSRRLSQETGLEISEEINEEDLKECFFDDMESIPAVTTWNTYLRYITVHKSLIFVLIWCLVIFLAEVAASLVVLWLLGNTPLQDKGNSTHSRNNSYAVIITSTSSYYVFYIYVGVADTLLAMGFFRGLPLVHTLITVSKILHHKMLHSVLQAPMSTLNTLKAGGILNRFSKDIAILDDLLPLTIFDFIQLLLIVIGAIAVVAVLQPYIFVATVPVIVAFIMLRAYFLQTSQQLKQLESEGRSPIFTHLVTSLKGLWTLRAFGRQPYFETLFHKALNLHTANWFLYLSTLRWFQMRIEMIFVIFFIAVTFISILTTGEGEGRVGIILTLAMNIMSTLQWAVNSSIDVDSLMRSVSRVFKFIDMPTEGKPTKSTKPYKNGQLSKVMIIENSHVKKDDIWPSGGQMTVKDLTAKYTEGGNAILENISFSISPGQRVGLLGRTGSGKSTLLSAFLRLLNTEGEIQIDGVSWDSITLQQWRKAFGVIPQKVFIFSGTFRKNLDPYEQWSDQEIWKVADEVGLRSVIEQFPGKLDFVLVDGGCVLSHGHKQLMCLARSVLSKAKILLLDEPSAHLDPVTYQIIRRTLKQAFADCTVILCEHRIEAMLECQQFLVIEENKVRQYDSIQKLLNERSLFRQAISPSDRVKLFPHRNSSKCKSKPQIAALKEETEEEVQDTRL
Experiment: Chronic TECC assay, primary bronchial epithelial cells of CF patients homozygous for CFTR ΔF508 (corrector, co-corrector and potentiator)
Assay type: cell-based
Details: chronic TECC; test compound at 1 μM; AUC = full area under the curve upon forskolin stimulation
RECORDED_METRIC: % Activity at 1 μM (AUC**) (%)
Answers are plain numbers, in %.

Example cases with answers are listed next.
| SMILES_REPRESENTATION | UNIT_OF_MEASUREMENT | % Activity at 1 μM (AUC**) |
| --- | --- | --- |
| COCCS(=O)(=O)NC(=O)c1cc(-c2ccc(N3CCOCC3)cc2)c2c(OC(C)C)nn(-c3ccccc3)c2n1 | % | 530 |
| CS(=O)(=O)NC(=O)c1cc(N2CCC(CCN3CCOCC3)CC2)c2c(C3CCC3)nn(-c3ccc(F)cc3)c2n1 | % | 280 |
| CN(C)S(=O)(=O)NC(=O)c1cc(N2CCC(N3CCCCC3)CC2)c2c(C3CCC3)nn(-c3ccc(F)cc3)c2n1 | % | 181.0865 |

Turning to the following compound.
Measured % Activity at 1 μM (AUC**) of "COCC1CCN(c2cc(C(=O)NS(=O)(=O)N3CCN(C)CC3)nc3c2c(C2CCC2)nn3-c2ccccc2)CC1" : 230

###

Target: ΔF508-CFTR (Homo sapiens, UniProt P13569, DEL508-508)
Construct: host or cells: CFBE41o-, doxycycline-inducible
Sequence (P13569 with tags, fused parts or gaps DEL508-508): as above
Assay: CFTR cell surface levels using HRP-tagged ΔF508-CFTR expressing CFBE cells, intrinsic corrector capacity
Format: cell-based
Conditions: HRP-tagged ΔF508-CFTR expressing CFBE41o- cells; compound alone (intrinsic corrector capacity); 20 hours at 33° C.; read-out: EC50
# if measured EC50 < 400 nM: Y  # else: N

Some entries whose results are on file:
| SMILES_REPRESENTATION | CATEGORY |
| --- | --- |
| COCC1CCN(c2cc(C(=O)NS(=O)(=O)N3CCC(C(=O)N4CCN(C)CC4)CC3)nc3c2c(C2CCC2)nn3-c2ccccc2)CC1 | Y |
| CC(C)OC1CCN(c2cc(C(=O)NS(C)(=O)=O)nc3c2c(C2CCC2)nn3-c2ccccc2)CC1 | Y |
| COCCOCC1(F)CCN(c2cc(C(=O)NS(C)(=O)=O)nc3c2c(C2CCC2)nn3-c2ccccc2)CC1 | Y |
| O=C(NS(=O)(=O)N1CCC(N2CCCCC2)CC1)c1cc(OCC2CCOCC2)c2c(C3CCC3)nn(-c3ccccc3)c2n1 | Y |
| CC(C)c1nn(-c2cccc(OC(F)(F)F)c2)c2nc(C(=O)NS(C)(=O)=O)cc(-c3ccc(N4CCOCC4)cc3)c12 | N |

Ask | Confirm or reject: EC50 of "COCC1CCN(c2cc(C(=O)NS(=O)(=O)CCCN(C)C)nc3c2c(C(C)C)nn3-c2ccc(F)cc2)CC1" lies strictly below 400 nM
Reply | N

Ask | Confirm or reject: EC50 of "CCS(=O)(=O)NC(=O)c1cc(-c2ccc(N3CCOCC3)cc2)c2c(C(C)C)nn(C3CCCCC3)c2n1" lies strictly below 400 nM
Reply | Y

Ask | Confirm or reject: EC50 of "COc1cc(-n2nc(C3CCC3)c3c(N4CCC(N5CCOCC5)CC4)cc(C(=O)NS(C)(=O)=O)nc32)ccn1" lies strictly below 400 nM
Reply | N

Ask | Confirm or reject: EC50 of "CC(C)c1nn(-c2ccnc(N3CCOCC3)c2)c2nc(C(=O)NS(=O)(=O)N(C)C)cc(OCC3CCOCC3)c12" lies strictly below 400 nM
Reply | Y

Ask | Confirm or reject: EC50 of "COCCS(=O)(=O)NC(=O)c1cc(-c2ccc(C(=O)N3CCC(N(C)C)CC3)cc2)c2c(OC(C)C)nn(C3CCCCC3)c2n1" lies strictly below 400 nM
Reply | N

Ask | Confirm or reject: EC50 of "C#CCCS(=O)(=O)NC(=O)c1cc(N2CCC(N3CCOCC3)CC2)c2c(C3CCC3)nn(-c3ccc(F)cc3)c2n1" lies strictly below 400 nM
Reply | Y

Ask | Confirm or reject: EC50 of "CC(C)COC(=O)N1CCN(c2cc(C(=O)NS(=O)(=O)N3CCOCC3)nc3c2c(C2CCC2)nn3-c2ccc(F)cc2)CC1" lies strictly below 400 nM
Reply | Y

Ask | Confirm or reject: EC50 of "COCC1CCN(c2cc(C(=O)NS(=O)(=O)NC3COC3)nc3c2c(C2CCC2)nn3-c2ccc(F)cc2)CC1" lies strictly below 400 nM
Reply | Y

Ask | Confirm or reject: EC50 of "CC(C)c1nn(-c2cccc(N(C)C)c2)c2nc(C(=O)NS(C)(=O)=O)cc(-c3ccc(N4CCC(C#N)CC4)cc3)c12" lies strictly below 400 nM
Reply | Y

Ask | Confirm or reject: EC50 of "CS(=O)(=O)NC(=O)c1cc(N2CCC(COCc3ccccc3)CC2)c2c(C3CCC3)nn(-c3ccccc3)c2n1" lies strictly below 400 nM
Reply | N

Ask | Confirm or reject: EC50 of "COCC1CCN(c2cc(C(=O)NS(=O)(=O)N3CCC(N4CCOCC4)CC3)nc3c2c(C2CCC2)nn3-c2ccc(F)cc2)CC1" lies strictly below 400 nM
Reply | Y

Ask | Confirm or reject: EC50 of "O=C(NS(=O)(=O)N1CCCC1)c1cc(N2CCC(N3CCOCC3)CC2)c2c(C3CCC3)nn(-c3ccc(F)cc3)c2n1" lies strictly below 400 nM
Reply | Y

Ask | Confirm or reject: EC50 of "CN(C)S(=O)(=O)NC(=O)c1cc(-c2ccc(CN3CCOCC3)cc2)c2c(C3CCC3)nn(C3CCCCC3)c2n1" lies strictly below 400 nM
Reply | Y
